Value source: patent US20060167056A1

- measurement.protocol: Aqueous solubility
- Type: physicochemical
- reported.conditions: aqueous, aqueous buffer; pH=4; read-out: initial aqueous solubility

{"molecule": "CCNCc1cncc(-c2ccc3[nH]nc(-c4nc5c(F)cc(F)cc5[nH]4)c3c2)c1C [Form B]", "solubility": "> 20 mg/mL"}
